Test system: Pseudomonas aeruginosa
Assay: Antimicrobial activity against Pseudomonas aeruginosa PTCC 1074 after 24 hr by Alamar blue assay
Format: functional
Details: PTCC 1074, 24 h
Recorded metric: MIC (µg/mL)

(A) CSc1ncc(C2NC(=O)NC(C)=C2C(=O)Nc2cccnc2)n1Cc1ccccc1 (stereo not given)
(B) CSc1ncc(C2NC(=O)NC(C)=C2C(=O)Nc2ccccc2Cl)n1Cc1ccccc1 (stereo not given)
(C) CCOC(=O)C1=C(C)NC(=O)NC1c1cnc(SC)n1Nc1ccccc1 (stereo not given)
Using measured MIC, arrange the compounds from above in descending sequence. Could you list the labels in the order requested?
B, A, C
(B: 512 µg/mL, A: 256 µg/mL, C: 128 µg/mL)

(1) COC(=O)C1=C(C)NC(=O)NC1c1cnc(SC)n1Nc1ccccc1 (stereo not given)
(2) CSc1ncc(C2NC(=O)NC(C)=C2C(=O)Nc2cccc(Cl)c2)n1Nc1ccccc1 (stereo not given)
Record comparison, field MIC: mark the lower of 1 and 2 . Pick one and reply with its label.
1

---

System: Aspergillus niger
Experiment: Antimicrobial activity against Aspergillus niger 5021 after 24 hr by Alamar blue assay
Format: functional
Details: Aspergillus niger, 5021, 24 h
Recorded metric: MIC (µg/mL)

Example results:
Molecule: CSc1ncc(C2NC(=O)NC(C)=C2C(=O)Nc2ccc(Cl)cc2)n1Cc1ccccc1 (stereo not drawn)
Recorded number: 256

Molecule: CSc1ncc(C2NC(=O)NC(C)=C2C(=O)Nc2ccccc2Cl)n1Cc1ccccc1 (stereo not drawn)
Recorded number: 256

(1) CSc1ncc(C2NC(=O)NC(C)=C2C(=O)Nc2cccc(Cl)c2)n1Nc1ccccc1 (stereo not drawn)
(2) CSc1ncc(C2NC(=O)NC(C)=C2C(=O)Nc2ccccn2)n1Nc1ccccc1 (stereo not drawn)
Given the listed records, identify the one among 1 and 2 with higher MIC. Pick one and reply with its label.
1
(1: 128 µg/mL, 2: 64 µg/mL)

(I) COC(=O)C1=C(C)NC(=O)NC1c1cnc(SC)n1Nc1ccccc1 (stereo not drawn)
(II) CSc1ncc(C2NC(=O)NC(C)=C2C(=O)Nc2cccnc2)n1Nc1ccccc1 (stereo not drawn)
(III) COC(=O)C1=C(C)NC(=O)NC1c1cnc(SC)n1Cc1ccccc1 (stereo not drawn)
Task field, ranking: reported MIC, descending order. Could you list the labels in the order requested?
III, I, II
(III: 256 µg/mL, I: 128 µg/mL, II: 64 µg/mL)

(A) CSc1ncc(C2NC(=O)NC(C)=C2C(=O)Nc2cccc(Cl)c2)n1Cc1ccccc1 (stereo not drawn)
(B) CCOC(=O)C1=C(C)NC(=O)NC1c1cnc(SC)n1Cc1ccccc1 (stereo not drawn)
Record comparison, field MIC: mark the lower of A and B . Pick one and reply with its label.
B
(B: 64 µg/mL, A: 128 µg/mL)

---

Tested on: Pseudomonas aeruginosa
Assay: Antimicrobial activity against Pseudomonas aeruginosa PTCC 1074 after 24 hr by Alamar blue assay
Type: functional
Settings: PTCC 1074, 24 h
Recorded metric: MIC (µg/mL)

Example results:
Compound: CSc1ncc(C2NC(=O)NC(C)=C2C(=O)Nc2ccc(Cl)cc2)n1Cc1ccccc1 (configuration not stated)
MIC [µg/mL]: 256
--
Compound: CSc1ncc(C2NC(=O)NC(C)=C2C(=O)Nc2cccc(Cl)c2)n1Cc1ccccc1 (configuration not stated)
MIC [µg/mL]: 256
--
Compound: COC(=O)C1=C(C)NC(=O)NC1c1cnc(SC)n1Cc1ccccc1 (configuration not stated)
MIC [µg/mL]: 512

(a) CSc1ncc(C2NC(=O)NC(C)=C2C(=O)Nc2ccccc2Cl)n1Nc1ccccc1 (configuration not stated)
(b) CC1=C(C(=O)Nc2cccnc2)C(c2cccs2)NC(=O)N1 (configuration not stated)
Given the listed records, identify the one among a and b with higher MIC. Pick one and reply with its label.
b
(b: 512 µg/mL, a: 256 µg/mL)
